assayProtocol: p53 small molecule agonists, cell-based qHTS assay: qHTS cell viability counter screen (AID 1963581); also: % is scaled to controls: 0 for no effect and ±100 for the full control effect; nearly all actives have a fitted effect of over 45% in size
experimentalContext: p53RE-bla HCT-116 viability, ATP luminescence, 16 h; series mostly up to 66 µM
Inconclusive results are not listed. The source made the active and inactive calls. Calls follow the shape of the full dose curve.
readoutType: activity change, negative = cytotoxicity

Worked examples follow.
>>> endpointvalue("COCCOCC(OC)OC")
"inactive"
>>> endpointvalue("C/C=C(/C(=C/C)c1ccc(OC(C)=O)cc1)c1ccc(OC(C)=O)cc1")
"inactive"
>>> endpointvalue("N#Cc1ccc(C(=O)O)cc1")
"inactive"
>>> endpointvalue("CCOC(=O)C(Br)c1ccccc1 (stereo not drawn)")
"inactive"
>>> endpointvalue("Cc1ccc(/C=N/n2c(-c3ccccc3)csc2=S)cc1")
"inactive"

Record summary for CC1=C(/C=C/C(C)=C\C=C\C(C)=C\C(=O)O)C(C)(C)CCC1 : reported activity change, negative = cytotoxicity = inactive

activity change, negative = cytotoxicity reported for this molecule Cc1cccc(C)n1 : inactive

activity change, negative = cytotoxicity measured on CCCC(=O)C(=O)O = inactive

activity change, negative = cytotoxicity measured on CC(C)(Sc1cc(C(C)(C)C)c(O)c(C(C)(C)C)c1)Sc1cc(C(C)(C)C)c(O)c(C(C)(C)C)c1 = inactive

Item: On1nnc2ccccc21 | activity change, negative = cytotoxicity: inactive

Entry CN1CCN(c2c(F)cc3c(=O)c(C(=O)O)cn4c3c2OCN4C)CC1 ; activity change, negative = cytotoxicity = 0.627% [at 13.5 µM] (inactive)

activity change, negative = cytotoxicity reported for this molecule Clc1cc(Cl)cc(Cl)c1 : inactive

Noted for Clc1nnc(Cl)c2ccccc12 : its activity change, negative = cytotoxicity reads inactive
